From: patent US20170008928A1

TESTED ON: human cholecystokinin-2 receptor (CCK-2R) (Homo sapiens, UniProt P32239)
Construct: host or cells: 1321-N1 cells (plasma membranes prepared by Evotec AG Hamburg)
Sequence (P32239 whole entry): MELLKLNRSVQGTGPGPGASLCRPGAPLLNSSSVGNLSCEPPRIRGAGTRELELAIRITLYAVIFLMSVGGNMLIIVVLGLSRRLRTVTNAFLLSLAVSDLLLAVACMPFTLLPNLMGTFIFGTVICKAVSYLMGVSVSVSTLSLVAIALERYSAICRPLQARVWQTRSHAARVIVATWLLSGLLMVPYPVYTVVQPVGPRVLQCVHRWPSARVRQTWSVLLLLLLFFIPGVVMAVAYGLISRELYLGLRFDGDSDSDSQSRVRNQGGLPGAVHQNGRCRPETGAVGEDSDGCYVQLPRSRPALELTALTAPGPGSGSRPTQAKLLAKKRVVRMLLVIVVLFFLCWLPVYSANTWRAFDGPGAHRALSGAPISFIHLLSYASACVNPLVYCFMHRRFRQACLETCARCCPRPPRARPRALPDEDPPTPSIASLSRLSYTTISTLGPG
ASSAY INFO: In vitro potency on CCK-2R, whole cell functional assay (IP1 accumulation, IP-One HTRF)
Type: cell-based
EXPERIMENTAL CONDITIONS: 1321-N1 cells stably expressing CCK-2R; IP1 accumulation; highest dose tested 1×10^6 pM; read-out: EC50 (CCK-2R)
Starred links: 1 amine or outer side, 2 acyl side, 3 side chain; linkers in the order of their positions; H or OH if unused. Non-standard residues stand in square brackets, D forms with d. Residues, ends and D or L forms follow the SMILES beside them. *: point of attachment. Phe(4-CH2SO3H) = N[C@@H](Cc1ccc(CS(=O)(=O)O)cc1)C(=O)O; sY = N[C@@H](Cc1ccc(OS(=O)(=O)O)cc1)C(=O)O; C18 diacid = O=C(O)CCCCCCCCCCCCCCCCC(=O)*; γGlu = O=C(O)[C@H](CCC(=O)[*:2])N[*:1]; NMeF = CN[C@@H](Cc1ccccc1)C(=O)O; dNMeD = CN[C@H](CC(=O)O)C(=O)O; Nle = CCCC[C@H](N)C(=O)O; AEEA = NCCOCCOCC(=O)O
OBSERVED PROPERTY: EC50

1. CCCC[C@H](NC(=O)[C@H](Cc1c[nH]c2ccccc12)NC(=O)CNC(=O)[C@@H]1CCCN1C(=O)[C@H](Cc1ccc(OS(=O)(=O)O)cc1)NC(=O)[C@@H](N)CC(=O)O)C(=O)N(C)[C@H](CC(=O)O)C(=O)N(C)[C@@H](Cc1ccccc1)C(N)=O [Example 69] (H-D[sY]PGW[Nle][dNMeD][NMeF]-NH2) = > 1000 nM
2. CCCC[C@H](NC(=O)[C@H](Cc1ccc(CS(=O)(=O)O)cc1)NC(=O)[C@@H](CC(=O)O)NC(=O)COCCOCCNC(=O)COCCOCCNC(=O)CC[C@H](NC(=O)CCCCCCCCCCCCCCCCC(=O)O)C(=O)O)C(=O)NCC(=O)N[C@@H](Cc1c[nH]c2ccccc12)C(=O)N[C@@H](CCCC)C(=O)N(C)[C@H](CC(=O)O)C(=O)N(C)[C@@H](Cc1ccccc1)C(N)=O [Example 25] ({C18 diacid-γGlu-AEEA-AEEA}-[dD][Phe(4-CH2SO3H)][Nle]GW[Nle][dNMeD][NMeF]-NH2) = > 1000 nM

Could you now consider this next molecule?
Name the reported EC50 value associated with the molecule "CCCC[C@H](NC(=O)[C@H](Cc1c[nH]c2ccccc12)NC(=O)CNC(=O)[C@H](CC(C)C)NC(=O)[C@H](Cc1ccc(OS(=O)(=O)O)cc1)NC(=O)[C@H](CC(=O)O)NC(=O)COCCOCCNC(=O)COCCOCCNC(=O)COCCOCCNC(=O)COCCOCCNC(=O)CC[C@H](NC(=O)CCCCCCCCCCCCCCCCC(=O)O)C(=O)O)C(=O)N(C)[C@H](CC(=O)O)C(=O)N(C)[C@@H](Cc1ccccc1)C(N)=O"
110 nM
